- assaySystem: T1, human MSLN-R3 on HEK293T-hMSLN-R3 recombinant cells (human, UniProt Q13421 487-606)
- T1 construct: the C-terminal limit is uncertain; also called human MSLN-R3 membrane protein
- T1 sequence (Q13421 495-614): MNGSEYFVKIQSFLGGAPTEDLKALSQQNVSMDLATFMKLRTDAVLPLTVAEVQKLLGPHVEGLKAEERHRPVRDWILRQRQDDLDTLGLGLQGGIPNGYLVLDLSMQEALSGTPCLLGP
- experimentDescription: FACS, HEK293T-hMSLN-R3 cells
measuredQuantity: Maximum_MFI

Past entries and their recorded results:
F7.44.20-H9 (scFv, not shown: small tags and cut ends, also called S009-F7.44.20 humanized antibody VH2 + VL1) scFv: EVQLVQSGAEVKKPGASVKVSCKASGYTFTDYNMDWVRQAPGQGLEWMGDINPSTGGTIYNQKFNGRVTMTEDKSASTVYMELSSLRSEDTAVYYCARRRIGTGYFDVWGQGTTVTVSSGGGGSGGGGSGGGGSEIVLTQSPDFQSVTPKEKVTITCSASSSVISSYLSWYQQKPDQSPKLLIYRTSNLASGVPSRFSGSGSGTDFTLTINSLEAEDAATYYCHQWSSFPYTFGGGTKVEIK :: 1560 MFI
F7.44.20-H11 (scFv, not shown: small tags and cut ends, also called S009-F7.44.20 humanized antibody VH2 + VL3) scFv: EVQLVQSGAEVKKPGASVKVSCKASGYTFTDYNMDWVRQAPGQGLEWMGDINPSTGGTIYNQKFNGRVTMTEDKSASTVYMELSSLRSEDTAVYYCARRRIGTGYFDVWGQGTTVTVSSGGGGSGGGGSGGGGSEIVLTQSPATLSLSPGERATLSCSASSSVISSYLSWYQQKPGQSPRLLIYRTSNLASGIPARFSGSGSGTDYTLTISSLEPEDFAVYYCHQWSSFPYTFGGGTKVEIK :: 1680 MFI
F7.44.20-H1 (scFv, not shown: small tags and cut ends, also called S009-F7.44.20 humanized antibody VH1 + VL1) scFv: EVQLVQSGAEVKKPGASVKVSCKASGYTFTDYNMDWVRQAPGQGLEWMGDINPSTGGTIYNQKFNGRVTMTEDKSTSTVYMELSSLRSEDTAVYYCARRRIGTGYFDVWGQGTTVTVSSGGGGSGGGGSGGGGSEIVLTQSPDFQSVTPKEKVTITCSASSSVISSYLSWYQQKPDQSPKLLIYRTSNLASGVPSRFSGSGSGTDFTLTINSLEAEDAATYYCHQWSSFPYTFGGGTKVEIK :: 1750 MFI
F7.44.20-H6 (scFv, not shown: small tags and cut ends, also called S009-F7.44.20 humanized antibody VH1a + VL2) scFv: EVQLVQSGAEVKKPGASVKVSCKASGYTFTDYNMDWVRQAPGQGLEWMGDINPSTGGTIYNQKFQGRVTMTEDKSTSTVYMELSSLRSEDTAVYYCARRRIGTGYFDVWGQGTTVTVSSGGGGSGGGGSGGGGSEIVLTQSPDFQSVTPKEKVTITCSASSSVISSYLSWYQQKPDQSPKLLIYRTSNLASGVPSRFSGSGSGTDYTLTINSLEAEDAATYYCHQWSSFPYTFGGGTKVEIK :: 1540 MFI

Here's the next entry for you.
Query string: For the binder F7.44.20 (scFv) EVQLQQSGPELVKPGASVKIPCKASGYTFTDYNMDWVKQSHGKSLEWIGDINPSTGGTIYNQKFNGKATLTEDKSASTVYMEFRSLTSDDTAVYYCARRRIGTGYFDVWGTGTTVTVSSGGGGSGGGGSGGGGSQIVLTQSPALMSASPGEKVTLTCSASSSVISSYLSWYQQKPGSSPKLLIYRTSNLASGVPARFSGSGSGTSYSLTISSMEAEDAASYFCHQWSSFPYTFGGGTKLEIK , what Maximum_MFI is on record?
Result string: 1450 MFI
